# Type: in vivo, human
# Particulars: human, in vivo, 30 mg/m2, AUC0–24, median (range)
Measured Quantity: AUC(0-t)
Please answer using a numeric value trailed by its unit.

Q: Name the reported AUC(0-t) value associated with the molecule Nc1nc(Cl)nc2c1ncn2[C@@H]1O[C@H](CO)[C@@H](O)[C@@H]1F
Result: 820 ng·h/mL

====

# Type: in vivo, human
# Particulars: human, in vivo, 10 mg/m2, AUC0–24, median (range)
Measured Quantity: AUC(0-t) (ng·h/mL)
Give just the number in ng·h/mL; leave the unit off.

Q: Name the reported AUC(0-t) value associated with the compound Nc1nc(Cl)nc2c1ncn2[C@@H]1O[C@H](CO)[C@@H](O)[C@@H]1F
Result: 300

====

# Type: in vivo, human
# Particulars: human, in vivo
Measured Quantity: AUC (ng·h/mL)
Give just the number in ng·h/mL; leave the unit off.

Q: Name the reported AUC value associated with the compound Nc1nc(Cl)nc2c1ncn2[C@@H]1O[C@H](CO)[C@@H](O)[C@@H]1F
Result: 3300

====

# Assay type: in vivo, human
# Particulars: human, in vivo, 40 mg/m2, AUC0–24, outlier value of one subject
Measured Quantity: AUC(0-t)
Please answer using a numeric value trailed by its unit.

Q: Name the reported AUC(0-t) value associated with the molecule Nc1nc(Cl)nc2c1ncn2[C@@H]1O[C@H](CO)[C@@H](O)[C@@H]1F
Result: 4000 ng·h/mL

====

# Assay type: in vivo, human
# Particulars: human, in vivo, 40 mg/m2
Measured Quantity: AUC at 5 daily doses (ng·h/mL)
Give just the number in ng·h/mL; leave the unit off.

Q: Name the reported AUC at 5 daily doses value associated with the molecule Nc1nc(Cl)nc2c1ncn2[C@@H]1O[C@H](CO)[C@@H](O)[C@@H]1F
Result: 5200
